Catalogue of % Inhibition of Gadd45β-MKK7 binding values
Tested on: T1, Gadd45β/MKK7 complex (biotin-hGadd45β with coated GST-MKK7, ELISA format) (human, UniProt O75293 1-160; O14733 1-419, biotinylated (sites not given))
T1 construct: not shown: glutathione S-transferase (GST) fusion partner
T1 sequence (looked up) 1: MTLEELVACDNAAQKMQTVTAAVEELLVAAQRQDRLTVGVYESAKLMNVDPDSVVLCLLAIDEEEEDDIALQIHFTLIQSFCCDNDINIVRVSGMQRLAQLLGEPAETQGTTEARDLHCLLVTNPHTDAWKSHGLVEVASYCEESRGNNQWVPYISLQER
T1 sequence (looked up) 2: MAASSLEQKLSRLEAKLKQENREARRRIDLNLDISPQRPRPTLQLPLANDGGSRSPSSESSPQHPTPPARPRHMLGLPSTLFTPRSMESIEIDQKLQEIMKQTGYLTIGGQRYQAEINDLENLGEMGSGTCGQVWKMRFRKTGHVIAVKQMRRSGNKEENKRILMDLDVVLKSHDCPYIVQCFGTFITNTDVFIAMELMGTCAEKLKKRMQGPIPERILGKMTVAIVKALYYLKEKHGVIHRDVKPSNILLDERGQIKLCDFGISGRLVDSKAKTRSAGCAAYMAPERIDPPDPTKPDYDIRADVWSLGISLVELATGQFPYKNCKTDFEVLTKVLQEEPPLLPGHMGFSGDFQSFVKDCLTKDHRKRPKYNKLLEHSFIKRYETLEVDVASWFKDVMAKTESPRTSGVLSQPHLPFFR
Method description: competition ELISA; coated MKK7 42 nM, biotin-hGadd45β 21 nM, competitor 42 nM nominal
* marks the point of attachment. Fmoc = O=C(OCC1c2ccccc2-c2ccccc21)*; βAla = NCCC(=O)O

{"columns": ["Binder", "% Inhibition of Gadd45β-MKK7 binding [%]"],
 "data": [
  ["{Fmoc-βAla-βAla}-YDHF-NH2 (also called Fmoc-LTP1) [Fmoc(βAla)2-YDHF-NH2]", 99],
  ["{Fmoc-βAla-βAla}-YDHS-NH2 (SMILES NC(=O)[C@H](CO)NC(=O)[C@H](Cc1c[nH]cn1)NC(=O)[C@H](CC(=O)O)NC(=O)[C@H](Cc1ccc(O)cc1)NC(=O)CCNC(=O)CCNC(=O)OCC1c2ccccc2-c2ccccc21) [Fmoc(βAla)2-YDHS-NH2]", 0]
]}
